- System: DU-145 prostate
- assay procedure: NCI-60 one-dose screen, 48 h
- cond: 10 µM unless noted
The panel holds about 83,000 compounds, 20% with a hit somewhere; the sample as a whole holds those more often. Activity calls are given as the source filed them. The calls were made as follows: active = growth percent below 10; inactive = the rest.
Possible outcomes: yes (active), no (inactive)

| compound | study system | cat |
| --- | --- | --- |
| Clc1ccccc1/C=C/c1nn2c(-c3ccncc3)nnc2s1 | DU-145 prostate | no |
| CCN1C(=O)N(CC)C2SC(N/N=C/c3ccc(F)cc3)=NC21 (centres undefined) | DU-145 prostate | no |
| O=C1CC2(CCOCC2)Oc2ncccc21 | DU-145 prostate | no |
| CC[C@@](C)(NC(=O)C(C)(C)NC(=O)[C@@H](NC(=O)[C@@H]1CCCN1C(=O)C(C)(C)NC(=O)[C@H](CC(C)C)NC(=O)CNC(=O)C(C)(C)NC(=O)[C@@H](NC(=O)C(C)(C)NC(=O)[C@H](CCC(N)=O)NC(=O)[C@H](C)NC(=O)C(C)(C)NC(=O)[C@H](C)NC(=O)C(C)(C)NC(=O)[C@@H]1CCCN1C(=O)C(C)(C)NC(C)=O)C(C)C)C(C)C)C(=O)N[C@@H](CCC(N)=O)C(=O)N[C@@H](CCC(N)=O)C(=O)N[C@H](CO)Cc1ccccc1 | DU-145 prostate | no |
| C[C@H]1[C@H](C)CC[C@]2(COC(=O)c3cccnc3)CC[C@]3(C)C(=CC[C@@H]4[C@@]5(C)CCCNC(C)(C)[C@@H]5CC[C@]43C)[C@H]12 | DU-145 prostate | no |
| Cc1ccc(NC(=O)N[C@@H](Cc2cc(F)cc(F)c2)C(=O)NC2C(=O)N3CCC[C@H]3C(=O)N3CCCC[C@H]3C(=O)N[C@@H](C)C(=O)N3C[C@H](C)C[C@H]3C(=O)O[C@H]2C)c(F)c1 (some centres undefined) | DU-145 prostate | no |
| O=C(Nc1ccc(F)cc1)c1cc(-c2ccc(F)cc2F)ccc1O | DU-145 prostate | no |
| CCc1ccc(NC(=O)N[C@@H](Cc2cccc(C)c2)C(=O)N[C@@H]2C(=O)N3CCC[C@H]3C(=O)N3CCCC[C@H]3C(=O)N[C@@H](CO)C(=O)N3C[C@H](C)C[C@H]3C(=O)O[C@H]2C)c(F)c1 | DU-145 prostate | no |
| Nc1ccc(-c2nnc(SCc3ccc(O)c4ncccc34)o2)cc1 | DU-145 prostate | yes |
| CCOC(=O)c1c(NC(=O)c2ccc(F)cc2F)sc2c1CCC(=O)C2 | DU-145 prostate | no |
| COC(=O)[C@@]1(C)CC[C@]2(C)CC[C@]3(C)C(=CC(=O)[C@@H]4[C@@]5(C)Cc6c(n(CC#CCN7CCN(C)CC7)c7ccccc67)C(C)(C)[C@@H]5CC[C@]43C)[C@@H]2C1 | DU-145 prostate | no |
| O=C(COc1ccc(/C=C2\SC(=O)NC2=O)cc1)Nc1ccc(C(=O)/C=C/c2cc3ccccc3nc2Cl)cc1 | DU-145 prostate | no |
| CC(C)=CCc1c2c(c(O)c3c1O[C@]14C(=C[C@@H]5C[C@H]1C(C)(C)O[C@@]4(C/C=C(/C)C(=O)O)C5=O)C3=O)CC(O)C(C)(C)O2 (some centres undefined) | DU-145 prostate | yes |
| CCOC(=O)Nc1ccc(-c2nc(-c3cccc(O)c3)c(-c3ccnc(Br)c3)[nH]2)cc1 | DU-145 prostate | no |
| CCN(CC)CCN1C(=O)c2c(c3c4cccnc4[nH]c3c3ccc4ccccc4c23)C1=O | DU-145 prostate | no |
| CS(=O)c1nccc(-c2c(-c3ccc(F)c(OCc4ccccc4)c3)nc3sccn23)n1 (centres undefined) | DU-145 prostate | yes |
| Oc1ccc(CSc2nnc(-c3ccccc3)o2)c2cccnc12 | DU-145 prostate | no |
| COc1cc(/C=C/C(=O)c2ccc(NC(=O)CSc3nnc(-c4ccc5nc(-c6ccccc6)[nH]c5c4)o3)cc2)cc(OC)c1OC | DU-145 prostate | no |
| CC1(C)CC[C@]2(C(=O)O)CC[C@]3(C)C(=CCC4[C@@]5(C)C[C@@H](O)[C@@H]6OC(c7ccccc7O)OC[C@@]6(C)C5CC[C@]43C)C2C1 (some centres undefined) | DU-145 prostate | no |
| Cn1cc(-c2nn3c(=O)cc(-c4ccccc4)nc3s2)c2cc(F)ccc21 | DU-145 prostate | no |
| CC(=O)c1ccc(NC(=O)COc2ccc(C3SCC(=O)N3c3ccc(Br)cc3)cc2)cc1 (centres undefined) | DU-145 prostate | no |
| CCN(CC)Cc1c(-c2cccc(OC(F)(F)F)c2)[nH]c2ccc(N3CCCC3)cc2c1=O | DU-145 prostate | no |
| CC(=O)Nc1ccc(NC(=O)Nc2cccc(-c3nc(-c4ccc(NC(=O)c5cccs5)cc4Cl)no3)c2)cc1C(F)(F)F | DU-145 prostate | yes |
| IP(CCCSc1n(Cc2ccc3ccccc3c2)c(-c2ccccc2)c(-c2ccccc2)[n+]1Cc1ccc2ccccc2c1)(c1ccccc1)(c1ccccc1)c1ccccc1 | DU-145 prostate | no |
| CC(=O)Nc1ccc(NC(=O)Nc2cccc(-c3nc(-c4ccc(NC(=O)c5cccnc5)cc4Cl)no3)c2)cc1C(F)(F)F | DU-145 prostate | yes |
| O=C1NC(=O)c2c1c1c3ccccc3ccc1c1[nH]c3ccccc3c21 | DU-145 prostate | no |
| Cc1cc(=O)n2nc(-c3cn(C)c4ccc(Cl)cc34)sc2n1 | DU-145 prostate | no |
| CC(C)=CCC[C@](C)(O)[C@H]1CC[C@]2(C)[C@@H]1CC[C@@H]1[C@@]3(C)CCC(NC(=O)c4ccccc4C(=O)O)C(C)(C)[C@@H]3CC[C@]12C (some centres undefined) | DU-145 prostate | no |
| CCN1C(=O)N(CC)C2SC(N/N=C/C=C/c3ccccc3OC)=NC21 (centres undefined) | DU-145 prostate | no |
